Origin of measurements: patent US20020012738A1

Test Target: porcine lipase (Sus scrofa)
Sequence (P00591 whole entry): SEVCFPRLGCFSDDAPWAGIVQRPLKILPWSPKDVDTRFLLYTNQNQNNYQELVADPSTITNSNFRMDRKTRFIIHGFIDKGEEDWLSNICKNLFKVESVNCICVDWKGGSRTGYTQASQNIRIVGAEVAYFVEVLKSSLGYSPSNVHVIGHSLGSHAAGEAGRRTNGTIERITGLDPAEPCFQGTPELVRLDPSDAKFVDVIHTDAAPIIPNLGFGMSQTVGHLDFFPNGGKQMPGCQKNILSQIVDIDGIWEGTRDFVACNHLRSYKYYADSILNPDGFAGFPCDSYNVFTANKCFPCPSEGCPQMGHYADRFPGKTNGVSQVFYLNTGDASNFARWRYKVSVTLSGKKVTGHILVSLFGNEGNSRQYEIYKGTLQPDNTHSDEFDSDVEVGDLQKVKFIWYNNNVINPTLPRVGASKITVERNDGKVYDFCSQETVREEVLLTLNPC
Run Description: Hydrolysis by pancreatic lipase, aqueous emulsion assay
Assay type: in vitro ADME
Assay Setup: 30° C., Bis-Tris propane buffer pH 7.8, HMPC, sodium cholate, 300 mg fat, unit assumed
Metric: Hydrolysis by pancreatic lipase, Aqueous Emulsion Assay 24 hr (%)
# number only, unit % dropped from output

CCCCCCCCCCCCCCCCCCCCOC(=O)CCCCC [Arachidyl caproate]: 4
CCCCCCCCCCCCCCCCCCCC(=O)OCCCCCC [Hexyl arachidate]: 11.7
CCCCCCCCCCCCCCCCCCCCOC(=O)CCCCCCC [Arachidyl caprylate]: 14.7

# evaluate next
Incoming: State the recorded Hydrolysis by pancreatic lipase, Aqueous Emulsion Assay 24 hr for this entry: CCCCCCCC/C=C\CCCCCCCC(=O)OCC(COC(=O)CCCCCCC/C=C\CCCCCCCC)OC(=O)CCCCCCC/C=C\CCCCCCCC [Triolein, reference compound]
Outgoing: 93.3
